molecular target: CYP3A4 (Homo sapiens); assay: Determination of CYP3A4 inhibitory activity (human liver microsome, Luciferin-IPA); conditions: CYP3A4 IC50 (nM), 37° C. 11 minutes
Sequence (P08684 whole entry): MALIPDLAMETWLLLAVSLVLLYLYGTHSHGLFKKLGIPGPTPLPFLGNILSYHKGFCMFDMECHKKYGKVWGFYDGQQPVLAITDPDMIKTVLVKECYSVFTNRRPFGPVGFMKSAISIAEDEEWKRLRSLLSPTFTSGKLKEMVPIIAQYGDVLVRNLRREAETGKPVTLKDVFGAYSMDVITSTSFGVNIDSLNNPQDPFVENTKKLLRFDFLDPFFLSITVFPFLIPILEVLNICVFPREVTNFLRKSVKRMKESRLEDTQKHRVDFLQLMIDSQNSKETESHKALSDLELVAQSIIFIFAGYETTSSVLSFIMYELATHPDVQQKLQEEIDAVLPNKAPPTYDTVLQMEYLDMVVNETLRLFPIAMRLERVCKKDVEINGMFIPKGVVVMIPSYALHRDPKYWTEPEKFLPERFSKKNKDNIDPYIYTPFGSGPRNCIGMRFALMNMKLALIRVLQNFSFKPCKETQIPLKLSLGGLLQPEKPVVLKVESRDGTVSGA
# Lookup of reported IC50 keyed by entry

### Prompt # get_value(readout='IC50', item= COc1cc(NC(=O)c2cc(=O)c3ccccc3o2)c(C(=O)Nc2ccc(CCN(C)Cc3cccc(-c4c[nH]cn4)c3)cc2)cc1OC [Compound 13] )
### Response > 1000 nM

### Prompt For COc1cc(NC(=O)c2cc(=O)c3ccccc3o2)c(C(=O)Nc2ccc(CCN(Cc3ccc4c(cnn4C)c3)Cc3ccc4c(c3)c(C)nn4C)cc2)cc1OC [Compound 181] , what is its reported IC50?
### Response > 1000 nM

From here, focus on the item given below.
### Prompt I am curious: what IC50 value has been reported for COc1cc(NC(=O)c2cc(=O)c3ccccc3o2)c(C(=O)Nc2ccc(CCN(Cc3ccc4c(cnn4C)c3)Cc3cncs3)cc2)cc1OC [Compound 140] ?
### Response > 1000 nM
